src = ChEMBL document CHEMBL5226352

Target: RNA demethylase ALKBH5 (Homo sapiens, UniProt Q6P6C2)
Sequence (Q6P6C2 whole entry): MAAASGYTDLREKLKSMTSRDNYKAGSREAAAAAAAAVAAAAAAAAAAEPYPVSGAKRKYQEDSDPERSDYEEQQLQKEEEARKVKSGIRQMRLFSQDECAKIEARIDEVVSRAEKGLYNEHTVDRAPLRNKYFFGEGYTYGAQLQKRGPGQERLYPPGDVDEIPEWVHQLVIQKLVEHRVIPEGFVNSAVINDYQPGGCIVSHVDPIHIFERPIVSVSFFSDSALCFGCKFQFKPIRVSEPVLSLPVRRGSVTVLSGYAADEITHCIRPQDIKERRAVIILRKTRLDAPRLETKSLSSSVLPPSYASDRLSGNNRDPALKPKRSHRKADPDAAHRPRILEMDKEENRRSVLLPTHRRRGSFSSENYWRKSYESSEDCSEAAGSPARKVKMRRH
Test: Inhibition of ALKBH5 (unknown origin)
Exam item: assign Condition met to entries whose IC50 is below 2 µM and Condition not met to entries at or above 2 µM. Note that a value of exactly 2 µM receives Condition not met.

[
  {
    "compound": "O=C(O)c1ccnc(C(=O)O)c1",
    "classification": "Condition not met"
  },
  {
    "compound": "O=c1c(O)c(-c2ccc(O)cc2O)oc2cc(O)cc(O)c12",
    "classification": "Condition not met"
  },
  {
    "compound": "O=C(O)CNC(=O)C(=O)O",
    "classification": "Condition not met"
  },
  {
    "compound": "N[C@H](CCCCCP(=O)(O)O)C(=O)O",
    "classification": "Condition not met"
  },
  {
    "compound": "CN1CC[C@]2(C)c3cc(O)ccc3N(C)C12 (some centres not stated)",
    "classification": "Condition not met"
  },
  {
    "compound": "Cc1cccc2c3ccccc3n(C)c12",
    "classification": "Condition met"
  }
]
